Conditions: buffer; pH 7.4; 200.0 µM
Recorded solubility kinetic values for a group of compounds are listed next.

compound	censoring.sign	solubility kinetic, µg/mL
N#Cc1ccccc1COC(=O)CCC(=O)c1cccs1	>	44.9
Cc1cccc(C)c1NC(=O)NC1(C(=O)NCc2ccncc2)CCCCC1	>	57.1
OCc1ccnc2oc3ccccc3c12	=	28.8
O=C(NCCN1CCOCC1)C1CC(=O)N(c2ccc(Cl)cc2)C1 (stereo not given)	>	52.8
COC(=O)c1scc(C)c1NC(=O)c1ccc(Cl)cc1	=	21.3
CS(=O)(=O)N1CCN(Cc2ccc([N+](=O)[O-])cc2)CC1	>	44.9
COc1ccccc1CCC(=O)Oc1ccc(C#N)cc1OC	=	9.5
Br.Cn1c(=N)n(CC(=O)c2ccc(F)cc2)c2ccccc21	>	54.6
CC(C)c1nc2oc3c(N(C)CCO)ncnc3c2c2c1CCC2	=	0.9
COC(=O)Cn1c(=O)oc2ccc(C)cc21	>	33.2
Cc1ccccc1C(=O)NC(=S)NCc1ccccc1	<	0.3
CCn1c(CCCNC(=O)c2ccco2)nc2ccccc21	=	42.1
O=c1cc[nH]c2ccc(OC(F)(F)F)cc12	>	34.4
O=C1Cc2ccccc2C(c2ccc(Cl)cc2Cl)N1 (stereo not given)	=	3.1
O=C(Nc1ccc(Cl)c(S(=O)(=O)N2CCOCC2)c1)c1ccncc1	>	57.3
Cl.FC(F)Sc1ccc(NC2=NCCCCC2)cc1	=	45
CC(NC(=O)CN(C)Cc1cccc(Cl)c1)c1ccccc1 (stereo not given)	=	38.6
Cc1cc(NC(=O)C2CC2)ccc1NC(=O)c1cccs1	=	13.1
CCOC(=O)COn1c(=O)c(-c2ccc(F)cc2)[n+]([O-])c2ccccc21	=	3.8
O=C(N1CCN(Cc2ccc3c(c2)OCO3)CC1)C(Cl)(Cl)Cl	=	37.6
COc1ccccc1NS(=O)(=O)c1ccc(C(=O)NCC(c2cccs2)N2CCOCC2)cc1 (stereo not given)	=	20
O=C(Nc1ccccc1N1CCCC1)C1CCCO1 (stereo not given)	>	39.1
CC1C(=O)C(C)(C)C(=O)OC1c1ccc([N+](=O)[O-])cc1 (stereo not given)	=	12.4
Oc1c(Cl)cc(CN2CCOCC2)c2cccnc12	=	33.6
O=C(COC(=O)[C@@H]1CCCN1C(=O)c1cccs1)Nc1cccc(Cl)c1	=	26.9
